Test system: BT-549 breast
ASSAY COMMENT: NCI tumour cell line growth inhibition, 48 h
Below: a set of entries, each annotated with reported GI50.

- COMPOUND: "O=C1/C(=C/c2cccc(Br)c2)COc2ccc(O)cc21"
  GI50: "3.01 µM"
- COMPOUND: "CCCCCCCCCCCCCCCCCC1=NC(C)(C)CN1CC(C)O (stereo not given)"
  GI50: "19.7 µM"
- COMPOUND: "COc1cc(OC)c(C(=O)/C=C/c2cc3c(cc2OCc2ccccc2)OC(C)(C)CC3)cc1CC=C(C)C"
  GI50: "4.2 µM"
- COMPOUND: "CCOC(=O)Nc1nc2ccc(OC)cc2s1"
  GI50: "> 100 µM"
- COMPOUND: "CCOC(=O)C(Cc1c[nH]c2c(N(CCO)CCO)cccc12)(NC(C)=O)C(=O)OCC"
  GI50: "564 µM"

====

Tested on: OVCAR-4 ovarian
ASSAY COMMENT: NCI tumour cell line growth inhibition, 48 h

- MOLECULE: "COc1ccc(C(c2c(O)c3ccccc3n(-c3ccccc3)c2=O)c2c(O)c3ccccc3n(-c3ccccc3)c2=O)cc1"
  TGI: "> 100 µM"
- MOLECULE: "CC(Oc1ccc2c(-c3ccccc3)cc(=O)oc2c1)C(=O)O (centres undefined)"
  TGI: "> 100 µM"
- MOLECULE: "CCOC(=O)c1[nH]c(-c2[nH]c(-c3[nH]c(-c4[nH]c(C(=O)OCC)c(C)c4C(=O)OCC)c(C(=O)OCC)c3C)c(C)c2C(=O)OCC)c(C(=O)OCC)c1C"
  TGI: "> 100 µM"
- MOLECULE: "CCNc1cc(-c2cccc(OC(F)(F)F)c2)nc2ccc(N3CCCC3)cc12"
  TGI: "10.7 µM"
- MOLECULE: "COc1ccc2c(=O)cc(-c3ccccc3)[nH]c2c1"
  TGI: "> 100 µM"
- MOLECULE: "O=S(=O)(NC1=NCCN1C(=S)SN1CCn2c1nsc2=S)c1cccc2ccccc12"
  TGI: "> 100 µM"
- MOLECULE: "O=S(=O)(O)c1cc(N=Nc2c(O)ccc3ccccc23)ccc1/C=C/c1ccc(N=Nc2c(O)ccc3ccccc23)cc1S(=O)(=O)O"
  TGI: "> 100 µM"
- MOLECULE: "CC(C)c1c(-c2ccccc2)nc2c(C#N)c[nH]n2c1=O"
  TGI: "> 90 µM"
- MOLECULE: "COC/C=C\\COC"
  TGI: "> 100 µM"

====

System: SK-MEL-5 melanoma
ASSAY COMMENT: NCI tumour cell line growth inhibition, 48 h
Below: a set of entries, each annotated with reported TGI.

- COMPOUND: "O=S(=O)(NC1=NCCN1C(=S)SN1CCn2c1nsc2=S)c1cccc2ccccc12"
  MODIFIER SIGN: "="
  TGI / µM: 54.4
- COMPOUND: "Cc1ccccc1OC(C)C(=O)NN1C(=O)CSC1c1ccc(Cl)cc1 (stereo not given)"
  MODIFIER SIGN: ">"
  TGI / µM: 100
- COMPOUND: "Nc1nc(Cl)c(N)c(NCC2(CO)CC2)n1"
  MODIFIER SIGN: ">"
  TGI / µM: 100
- COMPOUND: "CCCCCCCCCCCCCCCCCC1=NC(C)(C)CN1CC(C)O (stereo not given)"
  MODIFIER SIGN: "="
  TGI / µM: 32
- COMPOUND: "Cn1c(-c2c(N)n(Nc3cccc(Cl)c3)c3nc(C#N)c(C#N)nc23)nc2ccccc21"
  MODIFIER SIGN: "="
  TGI / µM: 16.6
- COMPOUND: "N/N=C1\\C(=O)N(C2CCCCCC2)C(=O)C1C(=O)NC1CCCCCC1 (stereo not given)"
  MODIFIER SIGN: "="
  TGI / µM: 43.6
- COMPOUND: "C#C/C=C\\CCCC/C=C\\C#CC#CCCCC#CC#C[C@H](COS(=O)(=O)O)OS(=O)(=O)O"
  MODIFIER SIGN: ">"
  TGI / µM: 100
- COMPOUND: "CC1=C(C(=O)CC(=O)C(=O)Nc2cc(C)ccc2C)Sc2ccccc2N1"
  MODIFIER SIGN: ">"
  TGI / µM: 100
- COMPOUND: "CC(=O)OCC1OC(n2cc(F)c(=O)[nH]c2=O)C(NC(=O)OCc2ccccc2)C(OC(C)=O)C1OC(C)=O (stereo not given)"
  MODIFIER SIGN: ">"
  TGI / µM: 100
- COMPOUND: "CCN(CC)CCCNc1ccc2nc(C)n3c4ccc(O)cc4c(=O)c1c23"
  MODIFIER SIGN: "="
  TGI / µM: 24.5
